B1: LINE1-mini (parent)
chain: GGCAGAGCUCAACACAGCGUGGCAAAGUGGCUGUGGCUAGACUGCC

- Variants of: B1
- method.notes: self-cleavage, relative activity (ratio to wild type); higher = more cleavage; in vitro, sequencing; the parent is a self-cleaving ribozyme
Below, each of the variants is paired with its reported self-cleavage value.
Could you respond with only the numeric value?

In the examples that follow, each entry is paired with its recorded self-cleavage.
{"variant.id": "C10G C13G", "val": 0.08}
{"variant.id": "A16C A24G", "val": 0.04}
{"variant.id": "C15A G30U", "val": 0.07}
{"variant.id": "U38G U43C", "val": 0.05}

**Query** Could you tell me which self-cleavage is on file for A6C G27U ?
**Result** 0.56

**Query** Same again, this time with A14G A16C
**Result** 0.08

**Query** Same again, this time with G7A G44U
**Result** 0.18

**Query** Same again, this time with C3U U34C
**Result** 0.07

**Query** Same again, this time with A6C G35C
**Result** 0.05

**Query** Same again, this time with G30C C31G
**Result** 0.44

**Query** Same again, this time with C15A G21U
**Result** 0.12

**Query** Same again, this time with G22A G35A
**Result** 0.23

**Query** Same again, this time with A26G G36A
**Result** 0.28

**Query** Same again, this time with U38C U43G
**Result** 0.07

**Query** Same again, this time with U43A G44U
**Result** 0.18

**Query** Same again, this time with G2U C23G
**Result** 0.04

**Query** Same again, this time with A6U U38C
**Result** 0.27

**Query** Same again, this time with C18A G36C
**Result** 0.03

**Query** Same again, this time with G19A C37U
**Result** 0.05

**Query** Same again, this time with G19A A26U
**Result** 1.89
